- target-system: UniProt:P42680
- Sequence (P42680 whole entry): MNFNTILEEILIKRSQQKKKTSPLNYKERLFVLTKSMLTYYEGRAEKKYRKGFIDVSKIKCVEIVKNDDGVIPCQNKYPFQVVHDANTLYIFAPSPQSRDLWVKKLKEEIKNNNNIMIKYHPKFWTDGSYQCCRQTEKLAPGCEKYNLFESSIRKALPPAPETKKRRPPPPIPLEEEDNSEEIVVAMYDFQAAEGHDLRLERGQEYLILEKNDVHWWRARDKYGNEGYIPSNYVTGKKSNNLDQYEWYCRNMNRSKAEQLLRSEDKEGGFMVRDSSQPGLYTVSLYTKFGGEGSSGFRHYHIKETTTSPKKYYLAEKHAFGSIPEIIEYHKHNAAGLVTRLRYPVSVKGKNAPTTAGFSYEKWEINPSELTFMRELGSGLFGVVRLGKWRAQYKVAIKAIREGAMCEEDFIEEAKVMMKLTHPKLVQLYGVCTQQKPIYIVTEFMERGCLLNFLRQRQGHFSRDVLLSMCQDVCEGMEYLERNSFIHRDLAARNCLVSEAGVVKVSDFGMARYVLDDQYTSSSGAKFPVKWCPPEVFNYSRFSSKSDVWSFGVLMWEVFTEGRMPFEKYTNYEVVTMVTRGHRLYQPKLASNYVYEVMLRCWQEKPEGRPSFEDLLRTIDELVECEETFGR
- assay-method-text: Biochemical kinase selectivity: IC50 determination of Tec
- conditions-used: TR-FRET, 280 μM ATP
metric-name: IC50 (nM)

Below, each entry is followed by its recorded IC50 result.
Incoming: Please report IC50 with UniProt:P42680 for item C=CC(=O)N1CCC(C2CCNc3c(C(N)=O)c(-c4cc(OC)c(-c5ccco5)c(OC)c4)nn32)CC1 (stereo not drawn) .
Outgoing: 455

Incoming: Please report IC50 with UniProt:P42680 for item C=CC(=O)N1CCC(C2CCNc3c(C(N)=O)c(-c4ccccc4)nn32)CC1 (stereo not drawn) [Example 144, reference compound] .
Outgoing: 491

Incoming: Please report IC50 with UniProt:P42680 for item C=CC(=O)N1CCC(C2CCNc3c(C(N)=O)c(-c4cc(OC)c(-c5ccsc5)c(OC)c4)nn32)CC1 (stereo not drawn) .
Outgoing: 369

Incoming: Please report IC50 with UniProt:P42680 for item C#CC(=O)N1CCC(C2CCNc3c(C(N)=O)c(-c4cc(OC)c(C)c(OC)c4)nn32)CC1 (stereo not drawn) .
Outgoing: 3.2

Incoming: Please report IC50 with UniProt:P42680 for item C=CC(=O)Nc1ccccc1C1CCNc2c(C(N)=O)c(-c3cc(Cl)c(OC)c(Cl)c3)nn21 (stereo not drawn) .
Outgoing: 37

Incoming: Please report IC50 with UniProt:P42680 for item C=CC(=O)N1CCC(C2CCNc3c(C(N)=O)c(-c4cc(OC)c(I)c(OC)c4)nn32)CC1 (stereo not drawn) .
Outgoing: 130

Incoming: Please report IC50 with UniProt:P42680 for item C=CC(=O)N1CCC(C2CCNc3c(C(N)=O)c(-c4cc(Cl)c(C5CC5)c(OC)c4)nn32)CC1 (stereo not drawn) .
Outgoing: 137

Incoming: Please report IC50 with UniProt:P42680 for item C=CC(=O)Nc1ccccc1C1CCNc2c(C(N)=O)c(-c3cc(F)c(F)c(Cl)c3)nn21 (stereo not drawn) [Example 158, reference compound] .
Outgoing: 56

Incoming: Please report IC50 with UniProt:P42680 for item C=CC(=O)N1CCC(C2CCNc3c(C(N)=O)c(-c4cc(C)c(C)c(OC)c4)nn32)CC1 (stereo not drawn) .
Outgoing: 207

Incoming: Please report IC50 with UniProt:P42680 for item C=CC(=O)N1CCC(C2CCNc3c(C(N)=O)c(-c4cc(OC)c(C5CCCCC5)c(OC)c4)nn32)CC1 (stereo not drawn) .
Outgoing: 102

(a) C=CC(=O)N1CCC(C2CCNc3c(C(N)=O)c(-c4cc(OC)c(CCc5ccccc5)c(OC)c4)nn32)CC1 (stereo not drawn)
(b) C=CC(=O)N1CC(C2CCNc3c(C(N)=O)c(-c4cc(OC)c(C)c(OC)c4)nn32)C1 (stereo not drawn)
Incoming: Consider entries a and b . Which has the numerically lower IC50? Write down the label of the entry you select.
Outgoing: a
(a: 53 nM, b: 157 nM)

(I) C=CC(=O)N1CCC(C2CCNc3c(C(N)=O)c(-c4cc(OC)c(C5=CCCCC5)c(OC)c4)nn32)CC1 (stereo not drawn)
(II) C=CC(=O)N1CCC(C2CCNc3c(C(N)=O)c(-c4cc(OC)c(C=C)c(OC)c4)nn32)CC1 (stereo not drawn)
Incoming: Consider entries I and II . Which has the numerically lower IC50? Write down the label of the entry you select.
Outgoing: II
